Molecular target: indoleamine 2, 3-dioxygenase (IDO1) in IFN-γ/LPS stimulated human peripheral blood mononuclear cells (PBMC) (Homo sapiens)
Construct: host or cells: human PBMC stimulated with IFN-γ and LPS
Sequence (P14902 whole entry): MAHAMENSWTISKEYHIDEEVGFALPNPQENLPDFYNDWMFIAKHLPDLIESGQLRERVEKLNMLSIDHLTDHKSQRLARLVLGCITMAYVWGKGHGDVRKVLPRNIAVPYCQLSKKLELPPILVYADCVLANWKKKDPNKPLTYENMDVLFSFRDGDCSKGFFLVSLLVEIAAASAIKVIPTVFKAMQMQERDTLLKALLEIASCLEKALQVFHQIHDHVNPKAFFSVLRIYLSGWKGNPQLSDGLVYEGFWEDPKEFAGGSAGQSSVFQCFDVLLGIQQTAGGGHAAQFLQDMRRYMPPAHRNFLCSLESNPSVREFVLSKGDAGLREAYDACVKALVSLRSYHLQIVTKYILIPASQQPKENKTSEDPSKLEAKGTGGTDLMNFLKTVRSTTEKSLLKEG
Assay: PBMC IDOi assay (kynurenine by mass spectrometry)
Format: cell-based
Conditions: human PBMC stimulated with IFN-γ and LPS, 2 days, kynurenine by MS; read-out: pXC50 PBMC (converted)
READOUT TYPE: IC50 (nM)
Value expressed in nM; do not type the unit.

Use these answered entries as a reference point.
COMPOUND: O=C(NCCNc1nonc1C(=NO)Nc1ccc(F)c(Br)c1)c1ccc2c(c1)COB2O [Compound 8]
UOM: nM
IC50: 50.1

COMPOUND: ON=C(Nc1ccc(F)c(Br)c1)c1nonc1Nc1ccc(B(O)O)cc1 [Compound 10]
UOM: nM
IC50: 200

COMPOUND: O=C(NCCNc1nonc1C(=NO)Nc1ccc(F)c(Br)c1)c1ccc2c(c1)B(O)OC=C2 [Compound 3]
UOM: nM
IC50: 316

Query (compound): CN(Cc1cccc2c1COB2O)C(=O)CNc1nonc1C(=NO)Nc1ccc(F)c(Br)c1 [Compound 5, 2,2,2-trifluoroacetate] ; field requested: IC50
158

Try the compound O=C(NCCNc1nonc1C(=NO)Nc1ccc(F)c(Br)c1)c1cccc2c1B(O)OC2 [Compound 6]
100

What do you get for O=C(NCCNc1nonc1C(=NO)Nc1ccc(F)c(Br)c1)c1cccc2c1B(O)OC=C2 [Compound 2] ?
501

Input O=C(CN1CCOB2OCc3cccc1c32)NCCNc1nonc1C(=NO)Nc1ccc(F)c(Br)c1 [Compound 7]
398

And O=C(NCCNc1nonc1C(=NO)Nc1ccc(F)c(Br)c1)c1ccc2c(c1)B(O)OCC2 [Compound 4] ?
100

And the next one, O=C(NCCNc1nonc1C(=NO)Nc1ccc(F)c(Br)c1)Nc1ccc(B(O)O)cc1 [Compound 9] ?
31.6

Note, next up: O=C(NCCNc1nonc1C(=NO)Nc1ccc(F)c(Br)c1)c1cccc2c1B(O)OCC2 [Compound 1]
126

====

Target: indoleamine 2, 3-dioxygenase (IDO1) in IFN-γ stimulated HeLa cells (Homo sapiens)
Construct: host or cells: HeLa cells stimulated with IFN-γ
Test: HeLa IDOi assay (kynurenine by mass spectrometry)
Format: cell-based
Settings: HeLa cells stimulated with IFN-γ, 2 days, kynurenine by MS; read-out: pXC50 HeLa (converted)
IC50 strictly under 200 nM means 1 (yes); at 200 nM or over means 0 (no).

COMPOUND: O=C(CN1CCOB2OCc3cccc1c32)NCCNc1nonc1C(=NO)Nc1ccc(F)c(Br)c1 [Compound 7]
ANSWER LABEL: 0 (no)
//
COMPOUND: O=C(NCCNc1nonc1C(=NO)Nc1ccc(F)c(Br)c1)c1ccc2c(c1)B(O)OC=C2 [Compound 3]
ANSWER LABEL: 0 (no)
//
COMPOUND: ON=C(Nc1ccc(F)c(Br)c1)c1nonc1Nc1ccc(B(O)O)cc1 [Compound 10]
ANSWER LABEL: 1 (yes)

is_below(IC50, 200 nM) for O=C(NCCNc1nonc1C(=NO)Nc1ccc(F)c(Br)c1)c1cccc2c1B(O)OC2 [Compound 6] ?
1 (yes)

Please answer likewise for O=C(NCCNc1nonc1C(=NO)Nc1ccc(F)c(Br)c1)c1ccc2c(c1)COB2O [Compound 8]
1 (yes)

Now consider O=C(NCCNc1nonc1C(=NO)Nc1ccc(F)c(Br)c1)c1ccc2c(c1)B(O)OCC2 [Compound 4] .
1 (yes)

Likewise for O=C(NCCNc1nonc1C(=NO)Nc1ccc(F)c(Br)c1)c1cccc2c1B(O)OC=C2 [Compound 2] ?
0 (no)

Can you check O=C(NCCNc1nonc1C(=NO)Nc1ccc(F)c(Br)c1)Nc1ccc(B(O)O)cc1 [Compound 9] next?
1 (yes)

Now the compound O=C(NCCNc1nonc1C(=NO)Nc1ccc(F)c(Br)c1)c1cccc2c1B(O)OCC2 [Compound 1]
1 (yes)

====

Experiment: In vivo pharmacokinetics, mouse clearance
READOUT TYPE: clearance
Reply with a number, then the unit it belongs to.

Use the examples below as a reference point.
MOLECULE: O=C(NCCNc1nonc1C(=NO)Nc1ccc(F)c(Br)c1)c1cccc2c1B(O)OC2
clearance: 7.1 mL/min/kg
--
MOLECULE: NS(=O)(=O)NCCNc1nonc1C(=NO)Nc1ccc(F)c(Br)c1 [Compound 11, reference compound]
clearance: 37.2 mL/min/kg
--
MOLECULE: O=C(NCCNc1nonc1C(=NO)Nc1ccc(F)c(Br)c1)c1cccc2c1B(O)OCC2
clearance: 0.6 mL/min/kg

Let us examine a further case.
Give its clearance value. Item: CN(Cc1cccc2c1COB2O)C(=O)CNc1nonc1C(=NO)Nc1ccc(F)c(Br)c1 [Compound 5, 2,2,2-trifluoroacetate]
3.1 mL/min/kg

====

Biological target: Recombinant human IDO1 (Homo sapiens)
Construct: made in house; host or cells: E. coli
Assay: IDOi enzyme assay (absorbance readout of NFK formation at 320 nm)
Assay type: biochemical
Details: recombinant human IDO1, 2 mM D-tryptophan, 30 min preincubation; read-out: pXC50 enzyme (converted)
READOUT TYPE: IC50 (nM)
Numbers only; they are read as nM.

Example entries and their recorded answers appear below.
COMPOUND: O=C(NCCNc1nonc1C(=NO)Nc1ccc(F)c(Br)c1)c1cccc2c1B(O)OCC2 [Compound 1]
IC50 (nM): 100
//
COMPOUND: O=C(CN1CCOB2OCc3cccc1c32)NCCNc1nonc1C(=NO)Nc1ccc(F)c(Br)c1 [Compound 7]
IC50 (nM): 100
//
COMPOUND: O=C(NCCNc1nonc1C(=NO)Nc1ccc(F)c(Br)c1)c1cccc2c1B(O)OC=C2 [Compound 2]
IC50 (nM): 200

I have this compound here, O=C(NCCNc1nonc1C(=NO)Nc1ccc(F)c(Br)c1)c1ccc2c(c1)B(O)OCC2 [Compound 4] , and I need its recorded IC50.
50.1

====

Documented IC50 across a set of compounds
Molecular target: Recombinant human IDO1 (Homo sapiens, UniProt P14902)
Construct: made in house; host or cells: E. coli
Sequence (P14902 whole entry): as above
Assay: IDOi enzyme assay (absorbance readout of NFK formation at 320 nm)
Type: biochemical
Conditions: recombinant human IDO1, 2 mM D-tryptophan, 30 min preincubation; read-out: pXC50 enzyme (converted)
Form entry: value (nM) — number only.

These solved cases illustrate the format of a correct answer.
COMPOUND: ON=C(Nc1ccc(F)c(Br)c1)c1nonc1Nc1ccc(B(O)O)cc1
IC50 [nM]: 25.1
--
COMPOUND: CN(Cc1cccc2c1COB2O)C(=O)CNc1nonc1C(=NO)Nc1ccc(F)c(Br)c1 [Compound 5, 2,2,2-trifluoroacetate]
IC50 [nM]: 100
--
COMPOUND: O=C(NCCNc1nonc1C(=NO)Nc1ccc(F)c(Br)c1)c1ccc2c(c1)B(O)OC=C2
IC50 [nM]: 79.4
--
COMPOUND: O=C(NCCNc1nonc1C(=NO)Nc1ccc(F)c(Br)c1)c1cccc2c1B(O)OC2
IC50 [nM]: 79.4
--
COMPOUND: O=C(NCCNc1nonc1C(=NO)Nc1ccc(F)c(Br)c1)c1ccc2c(c1)COB2O
IC50 [nM]: 79.4

Query compound follows.
Which measured IC50 value corresponds to `O=C(NCCNc1nonc1C(=NO)Nc1ccc(F)c(Br)c1)Nc1ccc(B(O)O)cc1` ?
31.6

====

Target: indoleamine 2, 3-dioxygenase (IDO1) in IFN-γ/LPS stimulated human monocyte-derived dendritic cells (MDDC) (Homo sapiens, UniProt P14902)
Construct: host or cells: human monocyte-derived dendritic cells stimulated with IFN-γ and LPS
Experiment: IDOi MDDC assay (kynurenine by mass spectrometry)
Format: cell-based
Conditions: human MDDC stimulated with IFN-γ and LPS, 2 days, kynurenine by MS; read-out: pXC50 MDDC (converted)
READOUT TYPE: IC50

Answered cases to consult:
COMPOUND: O=C(NCCNc1nonc1C(=NO)Nc1ccc(F)c(Br)c1)c1cccc2c1B(O)OCC2 [Compound 1]
IC50: 158 nM
//
COMPOUND: O=C(NCCNc1nonc1C(=NO)Nc1ccc(F)c(Br)c1)c1ccc2c(c1)B(O)OC=C2 [Compound 3]
IC50: 2000 nM

# evaluate next
Quick one: IC50 of O=C(NCCNc1nonc1C(=NO)Nc1ccc(F)c(Br)c1)Nc1ccc(B(O)O)cc1 [Compound 9] ?
63.1 nM

These measurements were taken from patent US10239894B2.
